// endpoint pKi / system UniProt P22498
Sequence (P22498 whole entry): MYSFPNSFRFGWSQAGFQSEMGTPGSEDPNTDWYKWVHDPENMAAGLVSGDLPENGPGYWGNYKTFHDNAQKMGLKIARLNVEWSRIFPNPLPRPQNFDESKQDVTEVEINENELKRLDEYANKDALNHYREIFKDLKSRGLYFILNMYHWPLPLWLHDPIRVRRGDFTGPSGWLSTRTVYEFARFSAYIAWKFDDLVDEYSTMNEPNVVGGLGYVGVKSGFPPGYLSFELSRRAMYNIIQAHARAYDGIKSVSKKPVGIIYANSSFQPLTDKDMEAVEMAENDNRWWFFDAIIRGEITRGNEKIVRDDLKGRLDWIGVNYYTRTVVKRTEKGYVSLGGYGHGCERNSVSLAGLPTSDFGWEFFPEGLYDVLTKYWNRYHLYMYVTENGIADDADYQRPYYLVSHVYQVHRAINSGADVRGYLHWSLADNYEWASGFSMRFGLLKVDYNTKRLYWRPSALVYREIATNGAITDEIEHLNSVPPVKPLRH
Just the number, please; pKi means minus log10 of the concentration in mol/L.

Examples with their reported pKi follow.
Enquiry: So what pKi did C[C@@H](O)[C@H]1NC[C@H](O)[C@@H](O)[C@@H]1O get with UniProt P22498?
Return: 3.98

Enquiry: So what pKi did OC[C@H]1NC[C@H](O)[C@@H](O)[C@@H]1O [Compound 2, 1‐deoxynojirimycin, reference compound] get with UniProt P22498?
Return: 5.51

Others:
Enquiry: So what pKi did C[C@H](O)[C@H]1NC[C@H](O)[C@@H](O)[C@@H]1O.Cl get with UniProt P22498?
Return: 4.77

----------
// endpoint Ki / system TmGH1 (Thermotoga maritima, UniProt Q08638)
Dear colleague, please send the value followed by its unit.

Enquiry: So what Ki did OC[C@H]1NC[C@H](O)[C@@H](O)[C@@H]1O [Compound 2, 1‐deoxynojirimycin, reference compound] get with TmGH1 (Thermotoga maritima, UniProt Q08638)?
Return: 5.4 µM

Enquiry: So what Ki did C[C@H](O)[C@H]1NC[C@H](O)[C@@H](O)[C@@H]1O.Cl [Compound 3] get with TmGH1 (Thermotoga maritima, UniProt Q08638)?
Return: 16 µM

# ---- query molecule ----
Enquiry: So what Ki did C[C@@H](O)[C@H]1NC[C@H](O)[C@@H](O)[C@@H]1O [Compound 4] get with TmGH1 (Thermotoga maritima, UniProt Q08638)?
Return: 135 µM

Ref: paper PMC9908843
